For each entry below, report its phage ELISA signal ratio value.
testedSystem: MAD2L1 2-205 HORMA (domain begin residue: 2, domain end residue: 205), Q13257
Sequence (Q13257 whole entry): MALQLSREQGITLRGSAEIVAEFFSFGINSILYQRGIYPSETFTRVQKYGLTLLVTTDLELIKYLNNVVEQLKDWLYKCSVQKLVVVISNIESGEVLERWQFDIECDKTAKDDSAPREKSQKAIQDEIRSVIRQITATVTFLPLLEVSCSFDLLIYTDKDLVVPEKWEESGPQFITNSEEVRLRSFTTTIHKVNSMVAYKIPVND
protocolSummary: phage ELISA signal ratio (GST-PRM binding over GST background); higher = stronger binding of peptide-phage to the PRM
Answers are plain numbers.

Consider the worked cases shown below.
Field phage ELISA signal ratio (entry SWLRFKAEPPQHIAQL ) reads 9

Kindly note the recorded phage ELISA signal ratio for QHSAMSAVWHFGPMWY , which is 15

Form: binder = VWYRFEPAPMPKPHGQ ; phage ELISA signal ratio = 20.4

Reported phage ELISA signal ratio for TWWHLAGPRSHLTTSY was 12.8

Data point: VWYHWQPPDSPINVIE ; phage ELISA signal ratio = 11.6

Count: 3. Required value per item: phage ELISA signal ratio.
1. PQTGHWIKFPKPWLEN
2. YSIWMMEPPKVAPKAE
3. GWFHIAPPPKQAEYTE

A)
[15.5, 15, 12.8]
